# target: T1, TP53 wild-type peptide on HLA-A*02:01 (human)
# T1 peptide: HMTEVVRRC
# experimentalProtocol: cytokine release
endpoint: binding result

>>> observed("TCR 7A (TCR, V domains shown) Valpha: AQKVTQAQTEISVVEKEDVTLDCVYETRDTTYYLFWYKQPPSGELVFLIRRNSFDEQNEISGRYSWNFQKSTSSFNFTITASQVVDSAVYFCALRNSGNTPLVFGKGTRLSVIA Vbeta: DSGVTQTPKHLITATGQRVTLRCSPRSGDLSVYWYQQSLDQGLQFLIQYYNGEERAKGNILERFSAQQFPDLHSELNLSSLELGDSALYFCASSVDWVQETQYFGPGTRLLVL")
"no recognition"
>>> observed("TCR 7B (TCR, V domains shown) Valpha: DAKTTQPTSMDCAEGRAANLPCNHSTISGNEYVYWYRQIHSQGPQYIIHGLKNNETNEMASLIITEDRKSSTLILPHATLRDTAVYYCIVPRGFSNTGKLIFGQGTTLQVKP Vbeta: GAVVSQHPSRVICKSGTSVKIECRSLDFQATTMFWYRQFPKQSLMLMATSNEGSKATYEQGVEKDKFLINHASLTLSTLTVTSAHPEDSSFYICSASESLALASEQYFGPGTRLTVT")
"no recognition"
>>> observed("TCR 3B (TCR, V domains shown) Valpha: AQKITQTQPGMFVQEKEAVTLDCTYDTSDQSYGLFWYKQPSSGEMIFLIYQGSYDEQNATEGRYSLNFQKARKSANLVISASQLGDSAMYFCAMREGRGRRALTFGSGTRLQVQP Vbeta: ETGVTQTPRHLVMGMTNKKSLKCEQHLGHNAMYWYKQSAKKPLELMFVYSLEERVENNSVPSRFSPECPNSSHLFLHLHTLQPEDSALYLCASSQDTAWDSGGETDTQYFGPGTRLTVL")
"no recognition"
